# literature pull: UniProtKB P56817 IC50
PROPERTY_NAME: IC50 (nM)

The examples below pair each entry with its known result.
# COMPOUND, MEASURED_TARGET, PROPERTY_NAME, TEST_VALUE
measured = [
    ("[2H]C1([2H])OC(N)=N[C@]12c1cc(-c3cncc(C#N)c3)ccc1C[C@@]21CC[C@H](OC)[C@@H](C)C1", "UniProtKB P56817", "IC50", 17),
    ("COc1ccc2c(c1)C1(CCSC(N)=N1)c1cc(Br)ccc1O2 (centres unmarked)", "UniProtKB P56817", "IC50", 23700),
    ("N#Cc1ccc(C(=O)Nc2ccc3c(c2)[C@@]2(CCOC(N)=N2)c2cc(Cl)nc(F)c2O3)nc1", "UniProtKB P56817", "IC50", 7),
    ("COc1cnc(C(=O)Nc2ccc3c(c2)[C@@]2(CCSC(N)=N2)c2cc(-c4ccnc(F)c4)nc(F)c2O3)cn1", "UniProtKB P56817", "IC50", 3.1),
    ("NC1=N[C@@]2(COC1)c1cc(-c3cncnc3)ccc1Oc1c(F)cc(C3=CCCOC3)cc12", "UniProtKB P56817", "IC50", 0.3),
    ("C[C@H]1SC(N)=N[C@@]2(c3ccc(F)cc3F)CO[C@@H](CF)C[C@@H]12", "UniProtKB P56817", "IC50", 805),
]

I. [2H]C1([2H])OC(N)=NC12c1cc(/C=N/OCC)ccc1C[C@]21CC[C@@H](OC)CC1 (some centres unmarked)
II. NC1=N[C@@]2(COC1)c1cc(-c3cccnc3F)ccc1Oc1c2cc(Cl)nc1F
Which has the higher IC50, I or II ? Provide the label of your selected option as the answer.
I
(I: 1630 nM, II: 1.2 nM)

a. NC1=N[C@@]2(CCO1)c1cc(-c3cccnc3F)ccc1Oc1cnc(-c3ccccc3)cc12
b. Cn1cc(F)c([C@H]2C[C@H]3CSC(N)=N[C@@]3(c3ccc(F)cc3F)CO2)n1
c. O=C([C@@H]1CNC[C@H]1c1ccccc1Br)N1CCC2(C=Cc3ccccc32)CC1
Ordering: ascending IC50. Show the ranking through the labels, in the order asked for.
a, b, c
(a: 4.1 nM, b: 162 nM, c: 19000 nM)

I. NC1=N[C@]2(COCC1)c1cc(-c3cccnc3F)ccc1Oc1cnc(-c3ccnc(F)c3)cc12
II. COc1ccc(Cc2cccc(C3(c4ccccc4)N=C(N)N4CCCN=C43)c2)cc1 (centres unmarked)
III. [2H]C([2H])([2H])O[C@@H]1CC[C@]2(Cc3ccc(-c4cccnc4)cc3[C@]23N=C(N)OC3([2H])[2H])C[C@H]1C
IV. COc1ccc(C(Cc2ccc(-c3ccc(O)nc3)cc2)c2cn(C)c(N)n2)cc1 (centres unmarked)
Hey, quick one: sort these by IC50, largest value first please. API: response body holds the labels in the requested order.
IV, II, I, III

P. Cc1ccccc1[C@H]1C[C@H]2CSC(N)=N[C@@]2(c2ccc(F)cc2F)CO1
Q. NC1=N[C@@]2(c3ccc(F)cc3F)CO[C@@H](c3ccncn3)C[C@H]2CS1
R. COCCCC1(C)Cc2ccc(-c3cc(C#N)cc(OC)c3)cc2C12COC(N)=N2 (centres unmarked)
S. NC1=N[C@@]2(CCO1)c1cc(-c3cccnc3F)ccc1Oc1ncc(C3=CCOCC3)cc12
Order the entries by their reported IC50, beginning at the minimum. Write the labels, ordered according to the request.
S, Q, P, R
(S: 12 nM, Q: 390 nM, P: 970 nM, R: 1950 nM)
